The values you see were collected from the kinase profiling compilation of Christmann-Franck et al. (2016).

- tested_system: PKN1 (human)
- experiment_notes: split-luciferase competition binding
- condition_summary: compound 10.0 µM
recorded_metric: inhibition (%)

compound	inhibition, %
N#C/C(=C\c1ccc(O)c(O)c1)C(N)=S	5
O=C(NC(NC(=S)Nc1ccc(F)c([N+](=O)[O-])c1)C(Cl)(Cl)Cl)C(c1ccccc1)c1ccccc1 (stereo unspecified)	0

(A) Cc1cc(F)c(Nc2ncnc3cc(OCc4ccccc4)ccc23)cc1O
(B) O=S(=O)(c1cccc2c(O)nccc12)N1CCCNCC1
query: Would you mind telling me which has the lower recorded inhibition between A and B ? Could you answer with the label of the item you picked?
result: A

(A) Oc1ccc(-c2nc(-c3ccc(F)cc3)c(-c3ccncc3)[nH]2)cc1
(B) CN1CC[C@H](c2c(O)cc(O)c3c(=O)cc(-c4ccccc4Cl)oc23)[C@H](O)C1
query: Would you mind telling me which has the lower recorded inhibition between A and B ? Could you answer with the label of the item you picked?
result: A
(A: 0%, B: 1%)

---

- tested_system: UniProt:Q96BR1
- Sequence (Q96BR1 whole entry, looked up): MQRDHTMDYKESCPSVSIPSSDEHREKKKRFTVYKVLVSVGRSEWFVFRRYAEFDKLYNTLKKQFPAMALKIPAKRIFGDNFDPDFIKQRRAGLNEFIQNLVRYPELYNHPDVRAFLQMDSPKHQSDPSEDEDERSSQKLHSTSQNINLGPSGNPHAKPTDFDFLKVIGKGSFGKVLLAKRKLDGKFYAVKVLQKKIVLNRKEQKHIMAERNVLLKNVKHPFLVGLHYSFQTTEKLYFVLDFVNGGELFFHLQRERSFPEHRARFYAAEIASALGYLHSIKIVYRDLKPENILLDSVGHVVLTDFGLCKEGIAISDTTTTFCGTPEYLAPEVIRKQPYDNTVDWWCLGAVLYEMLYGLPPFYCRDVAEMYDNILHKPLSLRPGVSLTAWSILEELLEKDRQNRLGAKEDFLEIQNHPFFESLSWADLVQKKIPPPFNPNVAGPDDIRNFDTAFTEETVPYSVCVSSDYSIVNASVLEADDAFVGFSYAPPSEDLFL
- experiment_notes: split-luciferase competition binding
- condition_summary: compound 10.0 µM
recorded_metric: inhibition (%)

structure	recorded_metric	quantitative_readout
CCN(CC)CCNC(=O)c1c(C)[nH]c(/C=C2\C(=O)Nc3ccc(F)cc32)c1C	inhibition	42
Cn1cc(C2=C(c3cn(CCCSC(=N)N)c4ccccc34)C(=O)NC2=O)c2ccccc21	inhibition	65
COc1cc2ncnc(Nc3ccc(F)c(Cl)c3)c2cc1OCCCN1CCOCC1	inhibition	3
CC(C)[C@H](CO)Nc1nc(Nc2ccc(C(=O)O)c(Cl)c2)c2ncn(C(C)C)c2n1	inhibition	3

(I) Cc1ccc(NC(=O)c2cccc(N(C)C)c2)cc1NC(=O)c1ccc(O)cc1
(II) O=C(c1ccc(Nc2nccc(-c3cc4ccccc4s3)n2)cc1)N1CCC(N2CCCC2)CC1
query: // compare measured inhibition, left I , right II , return larger Could you answer with the label of the item you picked?
result: II
(II: 62%, I: 0%)

(1) Nc1ccc(-c2cccc3c(=O)cc(N4CCOCC4)oc23)cc1
(2) Nc1ncnc2[nH]nc(Nc3ccc(F)cc3)c12
(3) Fc1ccc(Cl)cc1-c1nc(Nc2ccncc2)c2nccnc2n1
query: Provide the items ranked by increasing inhibition. API: response body holds the labels in the requested order.
result: 1, 3, 2
(1: 0%, 3: 14%, 2: 23%)

---

- tested_system: RPS6KA4 KD1 (human)
- experiment_notes: split-luciferase competition binding
- condition_summary: compound 10.0 µM
recorded_metric: inhibition (%)

Record excerpt, results attached:
molecule	readout_units	inhibition
Cc1cc(I)ccc1Nc1c(C(=O)NOCC2CC2)cc(F)c(F)c1F	%	0
O=c1cc(N2CCOCC2)nc2c3ccccc3ccn12	%	0
O=C1NC(=O)c2c1c1c3ccccc3n3c1c1c2c2ccccc2n1C1CCC3O1	%	77
O=C1Nc2ccc(I)cc2/C1=C/c1cc(Br)c(O)c(Br)c1	%	4
CS(=O)c1ccc(-c2nc(-c3ccc(F)cc3)c(-c3ccncc3)[nH]2)cc1 (centres undefined)	%	0
Brc1c(Br)c(Br)c2[nH]nnc2c1Br	%	0

(1) COc1ccc(Cl)cc1NC(=O)Nc1cc(C)nc2ccccc12
(2) CC(C)[C@H](CO)Nc1nc(Nc2ccc(C(=O)O)c(Cl)c2)c2ncn(C(C)C)c2n1
query: Would you mind telling me which has the lower recorded inhibition between 1 and 2 ? Could you answer with the label of the item you picked?
result: 1
